List of inhibition at 1 µM values.
Molecular target: recombinant human 17β-HSD2 (Homo sapiens)
Construct: made in house; host or cells: Sd9 (Sf9) insect cells, baculovirus (Bac to Bac Expression System)
Test: Inhibition of recombinant human 17β-HSD2
Assay type: biochemical
Settings: inhibitor at 1 μM; 50 nM estradiol, 1 mM NADH, 30 min at RT; read-out: 17β-HSD2 Inhibition % at 1 μM
Protocol: Similarly to 17β-HSD1 the Recombinant baculovirus was generated by the “Bac to Bac Expression System” (Invitrogen). Recombinant bacmid was transfected to Sd9 insect cells using “Cellfectin Reagent” (Invitrogen). […] The amount of 17β-HSD2 was analysed by immunoblotting and total protein concentration of each extract batch was determined. […] [formula] Percent inhibition was calculated flowingly: % inhibition=100−% conversion
Give the value, in units of %, as a plain number.

Answered cases to consult:
{"molecule": "CCOC(=O)Oc1ccc2c(c1)CCC1C2CC[C@]2(C)C(=O)C[C@@H](CCC(=O)Nc3ncc(C)s3)C12 (stereo partly shown)", "inhibition at 1 µM, %": 0}
{"molecule": "Cc1cnc(NC(=O)CC[C@@H]2CC(=O)[C@@]3(C)CCC4c5cc(F)c(O)cc5CCC4C23)s1 (stereo partly shown)", "inhibition at 1 µM, %": 6}

Ask: inhibition at 1 µM lookup needed for COc1ccc2c(c1)CCC1C2CC[C@]2(C)C(=O)C(O)[C@@H](CCC(=O)Nc3ncc(C)s3)C12 (stereo partly shown) , thanks.
Result: 3

Ask: Consider the molecule shown here: Cc1cnc(NC(=O)CC[C@@H]2CC(=O)[C@@]3(C)CCC4c5cccc(N)c5CCC4C23)s1 (stereo partly shown) What is its recorded inhibition at 1 µM?
Result: 0

Ask: Record request: inhibition at 1 µM value, item Cc1cnc(NC(=O)CC[C@@H]2CC(=O)[C@@]3(C)CCC4c5cc(Br)c(O)c(Br)c5CCC4C23)s1 (stereo partly shown)
Result: 5

Ask: Returns the measured inhibition at 1 µM for the input molecule. Input: Cc1cnc(NC(=O)CC[C@@H]2CC(=O)[C@@]3(C)CCC4c5cc6ncoc6c(Cl)c5CCC4C23)s1 (stereo partly shown)
Result: 0

Ask: Which inhibition at 1 µM value belongs to Cc1cnc(NC(=O)CC[C@@H]2CC(=O)[C@@]3(C)CCC4c5ccc(OC(=O)CN)cc5CCC4C23)s1 (stereo partly shown) ?
Result: 0

* * *

biological target: recombinant human 17β-HSD2 (Homo sapiens, UniProt P37059); construct: made in house; host or cells: Sd9 (Sf9) insect cells, baculovirus (Bac to Bac Expression System); assay: Inhibition of recombinant human 17β-HSD2; assay type: biochemical; settings: inhibitor at 1 μM; 50 nM estradiol, 1 mM NADH, 30 min at RT; read-out: 17β-HSD2 Inhibition % at 1 μM
Sequence (P37059 whole entry): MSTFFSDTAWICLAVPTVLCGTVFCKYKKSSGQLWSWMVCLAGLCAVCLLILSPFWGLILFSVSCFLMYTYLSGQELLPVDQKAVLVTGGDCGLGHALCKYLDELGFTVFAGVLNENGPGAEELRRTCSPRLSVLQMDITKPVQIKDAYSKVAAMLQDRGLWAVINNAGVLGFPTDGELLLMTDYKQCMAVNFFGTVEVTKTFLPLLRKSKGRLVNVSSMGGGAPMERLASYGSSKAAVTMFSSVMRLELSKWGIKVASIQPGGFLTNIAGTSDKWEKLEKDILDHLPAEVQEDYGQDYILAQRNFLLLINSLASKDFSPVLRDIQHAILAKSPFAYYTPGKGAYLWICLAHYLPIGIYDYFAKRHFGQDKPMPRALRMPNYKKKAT
Each entry below lists one item and its recorded inhibition at 1 µM value.

Worked cases, inhibition at 1 µM given:
{"molecule": "Cc1cnc(NC(=O)CC[C@@H]2CC(=O)[C@@]3(C)CCC4c5cccc([N+](=O)[O-])c5CCC4C23)s1 (some centres unmarked)", "system.under.test": "recombinant human 17β-HSD2 (Homo sapiens, UniProt P37059)", "observed.property": "inhibition at 1 µM", "data.value": "2%"}
{"molecule": "Cc1cnc(NC(=O)CC[C@@H]2CC(=O)[C@@]3(C)CCC4c5cc([N+](=O)[O-])ccc5CCC4C23)s1 (some centres unmarked)", "system.under.test": "recombinant human 17β-HSD2 (Homo sapiens, UniProt P37059)", "observed.property": "inhibition at 1 µM", "data.value": "1%"}
{"molecule": "COc1cc2c(cc1I)C1CC[C@]3(C)C(=O)C[C@@H](CCC(=O)Nc4ncc(C)s4)C3C1CC2 (some centres unmarked)", "system.under.test": "recombinant human 17β-HSD2 (Homo sapiens, UniProt P37059)", "observed.property": "inhibition at 1 µM", "data.value": "1%"}
{"molecule": "Cc1cnc(NC(=O)CC[C@@H]2CC(=O)[C@@]3(C)CCC4c5cc(F)ccc5CCC4C23)s1 (some centres unmarked)", "system.under.test": "recombinant human 17β-HSD2 (Homo sapiens, UniProt P37059)", "observed.property": "inhibition at 1 µM", "data.value": "0%"}
{"molecule": "CC(=O)Oc1ccc2c(c1)CCC1C2CC[C@]2(C)C(=O)C[C@@H](CCC(=O)Nc3ncc(C)s3)C12 (some centres unmarked)", "system.under.test": "recombinant human 17β-HSD2 (Homo sapiens, UniProt P37059)", "observed.property": "inhibition at 1 µM", "data.value": "13%"}

Ask: Fill in: inhibition at 1 µM of Cc1cnc(NC(=O)CC[C@@H]2CC(=O)[C@@]3(C)CCC4c5c([N+](=O)[O-])ccc(O)c5CCC4C23)s1 (some centres unmarked) is ___
Result: 4%

Ask: Fill in the blank: the reported inhibition at 1 µM of Cc1cnc(NC(=O)CC[C@@H]2CC(=O)[C@@]3(C)CCC4c5ccc(OS(C)(=O)=O)c(N)c5CCC4C23)s1 (some centres unmarked) is ____.
Result: 1%

Ask: Look up inhibition at 1 µM: Cc1cnc(NC(=O)CC[C@@H]2CC(=O)[C@@]3(C)CCC4c5cc(Br)c(O)cc5CCC4C23)s1 (some centres unmarked)
Result: 18%

Ask: Value lookup for inhibition at 1 µM; key = Cc1cnc(NC(=O)CC[C@@H]2CC(=O)[C@@]3(C)CCC4c5ccc(O)c(C#N)c5CCC4C23)s1 (some centres unmarked)
Result: 0%

Ask: So what's the measured inhibition at 1 µM for this one? Cc1cnc(NC(=O)CC[C@@H]2C(Br)C(=O)[C@@]3(C)CCC4c5cc(Br)c(O)c(Br)c5CCC4C23)s1 (some centres unmarked)
Result: 2%
